Assignment: determine reported Kd for the given binders.
Target: T1, hTREM2 stalk antigen (human, UniProt Q9NZC2 129-174)
T1 construct: also called human TREM2 stalk
T1 chain: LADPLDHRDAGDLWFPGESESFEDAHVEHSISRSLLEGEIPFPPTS
Assay: SPR (Biacore T200), 37 C; TREM2 stalk antigen on anti-human IgG1 Fc chip, antibody in solution
The reply should contain only the number, in nM.

Q. Fill in: Kd of 3.27H7 (rat anti-human TREM2 antibody) (antibody, V domains shown, Whole IgG) VH: EVQLVETGGSLVQPGGSLKLTCATSGFPFSNVWLHWIRRSPEKQLEWVAQIKARSDNYATYYAESVKGRFIVSRDDSKTTIYLQMNNLKEEDTAIYYCTGLDYWGQGVMVTVSS VL: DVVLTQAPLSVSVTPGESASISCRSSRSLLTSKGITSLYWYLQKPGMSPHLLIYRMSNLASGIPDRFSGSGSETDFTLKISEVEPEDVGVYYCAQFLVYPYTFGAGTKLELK is ___
A. 0.22

Q. Fill in: Kd of 3.50G1 (rat anti-human TREM2 antibody) (antibody, IgG2a, V domains shown, Whole IgG) VH: EVQLVETGGSLVQPGKSLKLTCATSGFPFSNVWMHWVRQSPEKQLEWIAHIKAKSDNYATYYAESVKGRFTISRDDSKTSIYLQMNSLKDDDTAIYYCTGLDYWGQGVMVTVSS VL: DTVLTQAPLSVSVTPGESASISCRSNKSLLGIRDITSLYWFLQKPGKSPQLLIYRMSNLASGVPDRFSGSGSETDFTLKISEVETEDVGVYYCAQFLRYPYTFGPGTKLELQ is ___
A. 0.61

Q. Fill in: Kd of 3.18E5 (rat anti-human TREM2 antibody) (antibody, IgG2a, V domains shown, Whole IgG) VH: EVQLVETGGSLVQPGKSLKLTCATSGFPFSNVWMHWVRQSPEKQLEWIAHIKAKSDNYATYYAESVKGRFTISRDDSKTTIYLQMNSLKEADTAIYYCTGLDYWGQGVMVTVSS VL: DTVLTQAPLSVSVTPGESASISCRSNKSLLGIRDITSLYWYLQKPGKSPQLLIYRMSNLASGVPDRFSGSGSETDFTLKISEVETEDVGVYYCAQFLRYPYTFGPGTKLELK is ___
A. 0.26

Q. Fill in: Kd of 3.10C2 (rat anti-human TREM2 antibody) (antibody, V domains shown, Whole IgG with rat variable regions; also called clone 3.10C2) VH: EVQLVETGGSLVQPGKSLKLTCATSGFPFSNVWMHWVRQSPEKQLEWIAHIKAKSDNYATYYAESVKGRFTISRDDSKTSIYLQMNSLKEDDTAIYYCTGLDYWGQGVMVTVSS VL: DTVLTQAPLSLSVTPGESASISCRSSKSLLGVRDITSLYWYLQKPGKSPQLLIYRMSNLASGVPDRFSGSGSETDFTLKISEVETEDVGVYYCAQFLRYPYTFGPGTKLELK is ___
A. 0.24
